System: SUM149PT spheroids with HUVEC/MSC, viability
Test: Anticancer human tumor SUM149PT cell line growth inhibition [GQUAD];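 note: spheroids exposed to drugs for seven days before readout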
Settings: curve of first compound; second compound 0.316 µM
Can you tell me pIC50 for the items I'm about to list?
Answers are plain numbers, as −log10 of the molar value.

As a guide, the following entries are already answered.
INSERT INTO results (compound, reportedresult) VALUES
  ('O=C(NO)c1cnc(N2CCN(S(=O)(=O)c3ccc4ccccc4c3)CC2)nc1 + Cc1cnc(CNC(=O)c2c(=O)c3ccc(N4CCCN(C)CC4)nc3n3c2sc2ccccc23)cn1', 6.92),
  ('CC1COCCN1c1cc(C2(O)CC3CCC(C2)O3)c2cnn(-c3ccn[nH]3)c2n1 (stereo not drawn) + CN(C)c1ccc(Nc2c3ccc(NC(=O)CCN4CCCC4)cc3nc3cc(NC(=O)CCN4CCCC4)ccc23)cc1', 7.13);

What value of pIC50 has been reported for the following compound? O=C(NO)c1cnc(N2CCN(S(=O)(=O)c3ccc4ccccc4c3)CC2)nc1 + CN(C)c1ccc(Nc2c3ccc(NC(=O)CCN4CCCC4)cc3nc3cc(NC(=O)CCN4CCCC4)ccc23)cc1 6.49
